measurement_target: T1, human a-PD-L1 Fc (Sino Biological, 10084-H02H, LC11NO2402) (human, UniProt Q9NZQ7 19-239)
T1 construct: Bought Fc fusion immobilised on the SPR chip; Printed as 'a-PD-L1 Fc' but used as the antigen (ligand) for the anti-PD-L1 scFvs; also called Human PD-L1; not shown: Fc part
T1 sequence (Q9NZQ7 19-239 limits assumed): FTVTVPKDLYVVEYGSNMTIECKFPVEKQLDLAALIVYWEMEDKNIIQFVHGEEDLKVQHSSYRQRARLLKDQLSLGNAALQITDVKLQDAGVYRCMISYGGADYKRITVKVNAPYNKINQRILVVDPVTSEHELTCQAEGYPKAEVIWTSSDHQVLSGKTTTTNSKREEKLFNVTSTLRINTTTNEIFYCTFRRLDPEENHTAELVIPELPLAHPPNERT
run_description: SPR, PD-L1 Fc immobilised, scFv analyte, 1:1 fit
Field: pKd. Provide a value for each of the binders that follow.
Answers are plain numbers, as −log10 of the molar value.

1) PRO2950 (scFv 37-20-B03-sc09.1_(T146Q)) (scFv, PRO2230 variant; VH substitution, AHo numbering; also called PRO2230 T146Q) scFv: DIQMTQSPASLSASVGDRVTITCQASQSIGTYLAWYQQKPGKPPKLLIYRAFILASGVPSRFSGSGSGTDFTLTISSLQPEDFATYYCQSNFYSDSTTIGPNAFGTGTKVTVLGGGGGSGGGGSGGGGSGGGGSEVQLVESGGGLVQPGGSLRLSCAASGFSFNSDYWIYWVRQAPGKGLEWIASIYGGSSGNTQYASWAQGRFTISRDNSKNTVYLQMNSLRAEDTAVYFCARGYVDYGGATDLWGQGTLVQVSS = 10.19

Give pKd for all binders that follow.
1. PRO3343 (scFv 37-20-B03-sc09.1_(T101R, T146E)) (scFv, PRO2230 variant; VH substitutions, AHo numbering; also called PRO2230 T101R-T146E) scFv: DIQMTQSPASLSASVGDRVTITCQASQSIGTYLAWYQQKPGKPPKLLIYRAFILASGVPSRFSGSGSGTDFTLTISSLQPEDFATYYCQSNFYSDSTTIGPNAFGTGTKVTVLGGGGGSGGGGSGGGGSGGGGSEVQLVESGGGLVQPGGSLRLSCAASGFSFNSDYWIYWVRQAPGKGLEWIASIYGGSSGNTQYASWAQGRFTISRDNSKNTVYLQMNSLRAEDRAVYFCARGYVDYGGATDLWGQGTLVEVSS
2. PRO3338 (scFv 37-20-B03-sc09.1_(T101K, T146Q)) (scFv, PRO2230 variant; VH substitutions, AHo numbering; also called PRO2230 T101K-T146Q) scFv: DIQMTQSPASLSASVGDRVTITCQASQSIGTYLAWYQQKPGKPPKLLIYRAFILASGVPSRFSGSGSGTDFTLTISSLQPEDFATYYCQSNFYSDSTTIGPNAFGTGTKVTVLGGGGGSGGGGSGGGGSGGGGSEVQLVESGGGLVQPGGSLRLSCAASGFSFNSDYWIYWVRQAPGKGLEWIASIYGGSSGNTQYASWAQGRFTISRDNSKNTVYLQMNSLRAEDKAVYFCARGYVDYGGATDLWGQGTLVQVSS
3. PRO2948 (scFv 37-20-B03-sc09.1_(T146R)) (scFv, PRO2230 variant; VH substitution, AHo numbering; also called PRO2230 T146R) scFv: DIQMTQSPASLSASVGDRVTITCQASQSIGTYLAWYQQKPGKPPKLLIYRAFILASGVPSRFSGSGSGTDFTLTISSLQPEDFATYYCQSNFYSDSTTIGPNAFGTGTKVTVLGGGGGSGGGGSGGGGSGGGGSEVQLVESGGGLVQPGGSLRLSCAASGFSFNSDYWIYWVRQAPGKGLEWIASIYGGSSGNTQYASWAQGRFTISRDNSKNTVYLQMNSLRAEDTAVYFCARGYVDYGGATDLWGQGTLVRVSS

Completion:
10.54
10.68
10.19

Required: pKd, one value per binder below.
1. PRO2915 (scFv 37-20-B03-sc09.1_(L12A, T101S, L144A, T146Q)) (scFv, PRO2230 variant; VH substitutions, AHo numbering; also called PRO2230 L12A-T101S-L144A-T146Q) scFv: DIQMTQSPASLSASVGDRVTITCQASQSIGTYLAWYQQKPGKPPKLLIYRAFILASGVPSRFSGSGSGTDFTLTISSLQPEDFATYYCQSNFYSDSTTIGPNAFGTGTKVTVLGGGGGSGGGGSGGGGSGGGGSEVQLVESGGGAVQPGGSLRLSCAASGFSFNSDYWIYWVRQAPGKGLEWIASIYGGSSGNTQYASWAQGRFTISRDNSKNTVYLQMNSLRAEDSAVYFCARGYVDYGGATDLWGQGTAVQVSS
2. PRO3306 (scFv 37-20-B03-sc09.1_(L12A, T101R, L144A, T146Q)) (scFv, PRO2230 variant; VH substitutions, AHo numbering; also called PRO2230 L12A-T101R-L144A-T146Q) scFv: DIQMTQSPASLSASVGDRVTITCQASQSIGTYLAWYQQKPGKPPKLLIYRAFILASGVPSRFSGSGSGTDFTLTISSLQPEDFATYYCQSNFYSDSTTIGPNAFGTGTKVTVLGGGGGSGGGGSGGGGSGGGGSEVQLVESGGGAVQPGGSLRLSCAASGFSFNSDYWIYWVRQAPGKGLEWIASIYGGSSGNTQYASWAQGRFTISRDNSKNTVYLQMNSLRAEDRAVYFCARGYVDYGGATDLWGQGTAVQVSS

Completion:
[10.30, 10.74]

Data origin: patent US20250382363A1
